// reported cell viability for each item listed
- System: SEM cells
- assay.overview: cell viability relative to DMSO control; higher = less cytotoxic
- assay.context: RPMI 5 mM glucose + 10% FBS; 48 h; 15.4 µM
Give the number first and the unit second.

Take a look at these entries with their results.
CCCCCCCN(CC)CCCC(O)c1ccc(NS(C)(=O)=O)cc1.CCCCCCCN(CC)CCCC(O)c1ccc(NS(C)(=O)=O)cc1.O=C(O)/C=C/C(=O)O (stereo not drawn)	94%
O=C(c1ccc(C(=O)N2CCC(N3CCCC3)CC2)c(Nc2ccccc2)c1)N1CCC(N2CCCC2)CC1	102%
COc1cc2nc(N3CCN(C(=O)c4ccco4)CC3)nc(N)c2cc1OC	13.5%
CCCCc1oc2ccccc2c1C(=O)c1cc(I)c(OCCN(CC)CC)c(I)c1	107%
COc1ccc2c(c1)CC[C@@H](CN(C)CC(=O)O)[C@H]2c1ccccc1	20.9%

Answer briefly: cell viability recorded on SEM cells for CC[P](CC)(CC)=[Au][S][C@@H]1O[C@H](COC(C)=O)[C@@H](OC(C)=O)[C@H](OC(C)=O)[C@H]1OC(C)=O
3.95%

Answer briefly: cell viability recorded on SEM cells for O=C(O)CCc1ccc(NCc2cccc(Oc3ccccc3)c2)cc1
120%

Answer briefly: cell viability recorded on SEM cells for CCC1=C2CN3C(=O)\C4=C(/C=C3/C2=NC5=CC=C(O)C=C15)[C@@](O)(CC)C(=O)OC4
5.69%

Where these numbers come from: the supplement of paper PMC11451515
